Assay: Absorption test by oral administration: concentration in whole blood
Type: in vivo
Settings: cynomolgus monkey, 0.5 hours, cynomolgus monkeys (six), oral 0.32 mg/kg, aqueous suspension of Prescription 7 diluted to 0.064 mg/ml, average ± standard error, read-out: Conc. in whole blood
Protocol: The aqueous suspension obtained in Prescription 7 was used. The oral agent mentioned above was diluted with purified water to have the concentration of FK 506 substance of 0.064 mg/ml. The resultant was orally administered to six cynomolgus monkeys (0.32 mg/kg). The concentration of FK 506 substance in whole blood was measured 0.5, 1, 2, 4 and 6 hours after the administration in accordance with the aforesaid enzyme immunoassay. The test results are represented by the average ± standard error.
value-kind: concentration at 0.5 h (ng/mL)
Report only the number, with the unit ng/mL understood.

The reported value for C=CCC1C=C(C)CC(C)CC(OC)C2OC(O)(C(=O)C(=O)N3CCCCC3C(=O)OC(C(C)=CC3CCC(O)C(OC)C3)C(C)C(O)CC1=O)C(C)CC2OC (stereo not shown) in terms of concentration at 0.5 h is 13.4

---

assay: Absorption test by oral administration: concentration in whole blood; format: in vivo; conditions: cynomolgus monkey, 6 hours, cynomolgus monkeys (six), oral 0.32 mg/kg, aqueous suspension of Prescription 7 diluted to 0.064 mg/ml, average ± standard error, read-out: Conc. in whole blood
value-kind: concentration at 6 h

The reported value for C=CCC1C=C(C)CC(C)CC(OC)C2OC(O)(C(=O)C(=O)N3CCCCC3C(=O)OC(C(C)=CC3CCC(O)C(OC)C3)C(C)C(O)CC1=O)C(C)CC2OC (stereo not shown) [FK 506 substance] in terms of concentration at 6 h is 12.4 ng/mL

---

experiment: Absorption test by oral administration: concentration in whole blood; format: in vivo; details: cynomolgus monkey, 1 hour, cynomolgus monkeys (six), oral 0.32 mg/kg, aqueous suspension of Prescription 7 diluted to 0.064 mg/ml, average ± standard error, read-out: Conc. in whole blood
value-kind: concentration at 1 h (ng/mL)
Report only the number, with the unit ng/mL understood.

The reported value for C=CCC1C=C(C)CC(C)CC(OC)C2OC(O)(C(=O)C(=O)N3CCCCC3C(=O)OC(C(C)=CC3CCC(O)C(OC)C3)C(C)C(O)CC1=O)C(C)CC2OC (stereo not shown) [FK 506 substance] in terms of concentration at 1 h is 18.6
